molecular target: PDE4D5 (Homo sapiens, UniProt Q08499); assay type: biochemical
Sequence (Q08499 1-745 isoform Q08499-6): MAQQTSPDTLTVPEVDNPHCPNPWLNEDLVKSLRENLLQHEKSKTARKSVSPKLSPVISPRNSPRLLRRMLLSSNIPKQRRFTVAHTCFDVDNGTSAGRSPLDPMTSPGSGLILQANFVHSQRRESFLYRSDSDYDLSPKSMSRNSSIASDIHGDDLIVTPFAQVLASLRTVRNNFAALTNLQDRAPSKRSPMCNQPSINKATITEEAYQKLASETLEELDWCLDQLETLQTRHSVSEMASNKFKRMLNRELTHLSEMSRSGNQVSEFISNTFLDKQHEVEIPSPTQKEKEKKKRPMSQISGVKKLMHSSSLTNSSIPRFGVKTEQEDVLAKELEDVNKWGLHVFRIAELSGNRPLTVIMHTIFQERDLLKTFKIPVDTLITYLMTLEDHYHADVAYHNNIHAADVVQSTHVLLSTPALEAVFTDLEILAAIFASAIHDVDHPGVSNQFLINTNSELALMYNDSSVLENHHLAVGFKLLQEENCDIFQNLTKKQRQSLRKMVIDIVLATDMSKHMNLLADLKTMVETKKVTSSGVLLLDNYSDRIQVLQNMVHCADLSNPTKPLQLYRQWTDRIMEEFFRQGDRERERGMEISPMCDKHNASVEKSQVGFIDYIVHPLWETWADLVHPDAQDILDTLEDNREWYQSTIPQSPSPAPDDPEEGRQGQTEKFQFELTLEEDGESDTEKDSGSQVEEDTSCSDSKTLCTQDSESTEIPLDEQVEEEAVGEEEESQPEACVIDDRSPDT
Reported property: IC50 (nM)
Just the number in nM, nothing appended.

[in] Field request: IC50 | item: O=C(Cc1c(Cl)c[n+]([O-])cc1Cl)c1ccc(OC(F)F)c2c1OC1(CCS(=O)(=O)CC1)O2 [Compound (I)]
[out] 2.18

----------
molecular target: PDE4A4 (Homo sapiens)
Sequence (P27815 whole entry): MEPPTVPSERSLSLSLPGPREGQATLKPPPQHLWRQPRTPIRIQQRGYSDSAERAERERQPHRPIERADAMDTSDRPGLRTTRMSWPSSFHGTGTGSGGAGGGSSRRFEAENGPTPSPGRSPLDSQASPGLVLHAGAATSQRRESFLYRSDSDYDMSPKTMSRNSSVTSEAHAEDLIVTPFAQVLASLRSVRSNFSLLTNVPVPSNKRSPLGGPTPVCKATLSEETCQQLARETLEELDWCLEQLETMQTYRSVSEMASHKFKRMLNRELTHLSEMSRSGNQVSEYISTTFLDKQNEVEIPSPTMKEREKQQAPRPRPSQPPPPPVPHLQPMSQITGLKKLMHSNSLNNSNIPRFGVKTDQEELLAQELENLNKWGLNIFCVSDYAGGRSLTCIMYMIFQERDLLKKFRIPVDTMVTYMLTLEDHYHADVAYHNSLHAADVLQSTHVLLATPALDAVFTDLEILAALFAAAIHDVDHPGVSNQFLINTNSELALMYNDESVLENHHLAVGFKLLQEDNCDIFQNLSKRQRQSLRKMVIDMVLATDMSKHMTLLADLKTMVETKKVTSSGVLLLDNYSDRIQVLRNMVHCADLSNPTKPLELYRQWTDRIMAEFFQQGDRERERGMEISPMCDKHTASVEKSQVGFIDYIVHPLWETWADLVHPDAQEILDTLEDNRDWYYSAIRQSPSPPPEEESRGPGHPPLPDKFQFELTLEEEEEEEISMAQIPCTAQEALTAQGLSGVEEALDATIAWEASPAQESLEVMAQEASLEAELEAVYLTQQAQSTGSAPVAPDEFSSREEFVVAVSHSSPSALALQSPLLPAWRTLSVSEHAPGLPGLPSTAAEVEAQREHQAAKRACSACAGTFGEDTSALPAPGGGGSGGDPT
Reported property: pIC50
Schema: pIC50 number; meaning minus log10 of the concentration expressed in molar units.

[in] Fill blank: measured pIC50 of the compound O=C(Cc1c(Cl)c[n+]([O-])cc1Cl)c1ccc(OC(F)F)c2c1OC1(CCS(=O)(=O)CC1)O2 [Compound (I)] is ____.
[out] 7.95

Numbers sourced from patent US20260069578A1.
